Data origin, for the record: patent US20230064983A1

Biological target: Ba/F3-EGFR-WT cells (Homo sapiens, UniProt P00533)
Sequence (P00533 whole entry, looked up, change not shown): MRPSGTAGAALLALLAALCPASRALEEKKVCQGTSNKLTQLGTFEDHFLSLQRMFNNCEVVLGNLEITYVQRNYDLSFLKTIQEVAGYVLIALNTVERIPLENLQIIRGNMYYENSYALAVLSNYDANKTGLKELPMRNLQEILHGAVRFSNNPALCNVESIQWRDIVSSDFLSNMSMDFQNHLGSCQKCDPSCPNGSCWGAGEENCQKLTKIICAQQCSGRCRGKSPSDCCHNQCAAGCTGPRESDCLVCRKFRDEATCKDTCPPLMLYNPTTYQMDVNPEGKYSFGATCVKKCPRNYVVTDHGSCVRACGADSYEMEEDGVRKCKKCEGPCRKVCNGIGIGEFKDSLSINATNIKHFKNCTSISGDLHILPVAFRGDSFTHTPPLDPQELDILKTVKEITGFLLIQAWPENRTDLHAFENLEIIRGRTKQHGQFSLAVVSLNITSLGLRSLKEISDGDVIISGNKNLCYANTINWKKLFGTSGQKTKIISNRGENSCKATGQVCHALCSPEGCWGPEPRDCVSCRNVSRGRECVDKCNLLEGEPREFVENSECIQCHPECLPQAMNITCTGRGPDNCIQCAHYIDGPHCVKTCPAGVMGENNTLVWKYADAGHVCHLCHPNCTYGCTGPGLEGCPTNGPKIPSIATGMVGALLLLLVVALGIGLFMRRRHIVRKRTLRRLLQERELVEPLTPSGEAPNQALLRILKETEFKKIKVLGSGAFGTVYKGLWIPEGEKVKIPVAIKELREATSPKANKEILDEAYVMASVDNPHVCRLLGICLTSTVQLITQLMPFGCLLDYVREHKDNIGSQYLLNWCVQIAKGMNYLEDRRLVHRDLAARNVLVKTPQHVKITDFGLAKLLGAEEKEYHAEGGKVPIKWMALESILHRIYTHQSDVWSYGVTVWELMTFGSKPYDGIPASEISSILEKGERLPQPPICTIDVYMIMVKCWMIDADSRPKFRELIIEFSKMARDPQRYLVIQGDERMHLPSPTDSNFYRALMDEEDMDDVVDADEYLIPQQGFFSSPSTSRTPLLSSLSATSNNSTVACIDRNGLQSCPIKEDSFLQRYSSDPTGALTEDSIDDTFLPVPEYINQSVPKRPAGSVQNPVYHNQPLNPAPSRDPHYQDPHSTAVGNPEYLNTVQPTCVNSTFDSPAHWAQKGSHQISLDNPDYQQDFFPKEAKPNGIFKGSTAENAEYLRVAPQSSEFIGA
Assay: Ba/F3 cell survival assay, wild type EGFR
Format: cell-based
Conditions: Cell Titer-Glo, 48 h, with 10 ng/mL EGF; Table 4; read-out: BA/F3 (wild type) IC50
readout: GI50 (µM)
Numbers only, in µM.

These recorded examples may help you get a feel for the data.
>  <compound>
COCC(C)Oc1cnccc1-c1[nH]c2c(c1Nc1cccc(Cl)c1OC)C(=O)N[C@H](C)C2 (mixture of isomers) [Example 41]

>  <GI50, µM>
0.479

$$$$
>  <compound>
COc1c(Cl)cccc1Nc1c(-c2ccncc2OC[C@@H]2CCCO2)[nH]c2c1C(=O)NC(C(F)(F)F)C2 (single isomer, unassigned) [Example 40]

>  <GI50, µM>
0.48

$$$$
>  <compound>
COc1c(Cl)cccc1Nc1c(-c2ccncc2OCC2CCCCO2)[nH]c2c1C(=O)NCC2C (single isomer, unassigned) [Example 45]

>  <GI50, µM>
0.84

$$$$
>  <compound>
COc1c(Cl)cccc1Nc1c(-c2ccncc2OC[C@@H]2CCCO2)[nH]c2c1C(=O)N[C@@H]1CCC[C@H]21 [Example 56]

>  <GI50, µM>
0.693

$$$$
>  <compound>
COc1c(Cl)cccc1Nc1c(-c2ccncc2OCC2COCCO2)[nH]c2c1C(=O)N[C@H](C)C2 (mixture of isomers) [Example 24]

>  <GI50, µM>
0.5

$$$$
>  <compound>
COc1c(Cl)cccc1Nc1c(-c2ccncc2OCC2CCCCN2C)[nH]c2c1C(=O)N[C@H](C)C2 (single isomer, unassigned) [Example 84]

>  <GI50, µM>
0.379

$$$$
>  <compound>
COc1c(Cl)cccc1Nc1c(-c2ccncc2OCC2OCCCC2(F)F)[nH]c2c1C(=O)N[C@H](C)C2 (single isomer, unassigned) [Example 75]

>  <GI50, µM>
0.264

$$$$
>  <compound>
COc1c(Cl)cccc1Nc1c(-c2ccncc2OCC(C)(C)OC)[nH]c2c1C(=O)N[C@@H](C)C2 [Example 2]

>  <GI50, µM>
0.575

$$$$
>  <compound>
COc1c(Cl)cccc1Nc1c(-c2ccncc2OCCC(C)OC)[nH]c2c1C(=O)N[C@H](C)C2 (single isomer, unassigned) [Example 122]

>  <GI50, µM>
0.506

$$$$
>  <compound>
COc1c(Cl)cccc1Nc1c(-c2ccncc2OCC2COC(C)(C)CO2)[nH]c2c1C(=O)NCC2C (single isomer, unassigned) [Example 94]

>  <GI50, µM>
1.08

$$$$

Quick request: GI50 for each listed item, please.
1. COc1c(Cl)cccc1Nc1c(-c2ccncc2OCC2COC(C)(C)CO2)[nH]c2c1C(=O)NC1(CCC1)C2 (single isomer, unassigned) [Example 130]
2. COc1c(Cl)cccc1Nc1c(-c2ccncc2OC[C@@H]2CCCO2)[nH]c2c1C(=O)N[C@H]1CCC[C@@H]21 [Example 57]
3. Cc1c(Cl)cccc1Nc1c(-c2ccncc2OC[C@@H]2CCCO2)[nH]c2c1C(=O)NCC2C (mixture of isomers) [Example 58]

1. 0.418
2. 1.71
3. 1.25

====

Target: Bub1 (Homo sapiens, UniProt O43683)
Construct: catalytic domain of human Bub1 (amino acids 704-1085); His6 (N); made in house; host or cells: insect cells (Hi5)
Sequence (O43683 704-1085): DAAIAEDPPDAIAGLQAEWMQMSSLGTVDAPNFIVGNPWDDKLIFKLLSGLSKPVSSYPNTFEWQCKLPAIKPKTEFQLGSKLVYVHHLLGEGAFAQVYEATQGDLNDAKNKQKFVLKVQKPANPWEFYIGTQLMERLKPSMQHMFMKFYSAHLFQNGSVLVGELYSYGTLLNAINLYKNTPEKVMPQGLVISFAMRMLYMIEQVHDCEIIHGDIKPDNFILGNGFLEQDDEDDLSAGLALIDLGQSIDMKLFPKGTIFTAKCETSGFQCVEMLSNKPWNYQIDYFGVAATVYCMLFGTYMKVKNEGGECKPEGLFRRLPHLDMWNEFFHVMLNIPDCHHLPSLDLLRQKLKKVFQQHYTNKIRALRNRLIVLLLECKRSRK
Assay: Bub1 high ATP kinase assay (TR-FRET)
Assay type: biochemical
Conditions: Bub1 high ATP (2 mM) IC50, TR-FRET, 2 mM ATP; Table 3
readout: IC50 (µM)
Numbers only, in µM.

>  <molecule>
COc1c(Cl)cccc1Nc1c(-c2ccncc2OC[C@@H]2CCCO2)[nH]c2c1C(=O)NC(C(F)(F)F)C2 (single isomer, unassigned) [Example 40]

>  <IC50 (µM)>
0.399

$$$$

Okay, next one:
For COc1c(Cl)cccc1Nc1c(-c2ccncc2OC[C@@H]2CCCCO2)[nH]c2c1C(=O)NC1(CCC1)C2 , write its IC50.
1.44
